- Tested On: human Nav1.7 (Homo sapiens (Human), UniProt Q15858)
- Sequence (Q15858 whole entry): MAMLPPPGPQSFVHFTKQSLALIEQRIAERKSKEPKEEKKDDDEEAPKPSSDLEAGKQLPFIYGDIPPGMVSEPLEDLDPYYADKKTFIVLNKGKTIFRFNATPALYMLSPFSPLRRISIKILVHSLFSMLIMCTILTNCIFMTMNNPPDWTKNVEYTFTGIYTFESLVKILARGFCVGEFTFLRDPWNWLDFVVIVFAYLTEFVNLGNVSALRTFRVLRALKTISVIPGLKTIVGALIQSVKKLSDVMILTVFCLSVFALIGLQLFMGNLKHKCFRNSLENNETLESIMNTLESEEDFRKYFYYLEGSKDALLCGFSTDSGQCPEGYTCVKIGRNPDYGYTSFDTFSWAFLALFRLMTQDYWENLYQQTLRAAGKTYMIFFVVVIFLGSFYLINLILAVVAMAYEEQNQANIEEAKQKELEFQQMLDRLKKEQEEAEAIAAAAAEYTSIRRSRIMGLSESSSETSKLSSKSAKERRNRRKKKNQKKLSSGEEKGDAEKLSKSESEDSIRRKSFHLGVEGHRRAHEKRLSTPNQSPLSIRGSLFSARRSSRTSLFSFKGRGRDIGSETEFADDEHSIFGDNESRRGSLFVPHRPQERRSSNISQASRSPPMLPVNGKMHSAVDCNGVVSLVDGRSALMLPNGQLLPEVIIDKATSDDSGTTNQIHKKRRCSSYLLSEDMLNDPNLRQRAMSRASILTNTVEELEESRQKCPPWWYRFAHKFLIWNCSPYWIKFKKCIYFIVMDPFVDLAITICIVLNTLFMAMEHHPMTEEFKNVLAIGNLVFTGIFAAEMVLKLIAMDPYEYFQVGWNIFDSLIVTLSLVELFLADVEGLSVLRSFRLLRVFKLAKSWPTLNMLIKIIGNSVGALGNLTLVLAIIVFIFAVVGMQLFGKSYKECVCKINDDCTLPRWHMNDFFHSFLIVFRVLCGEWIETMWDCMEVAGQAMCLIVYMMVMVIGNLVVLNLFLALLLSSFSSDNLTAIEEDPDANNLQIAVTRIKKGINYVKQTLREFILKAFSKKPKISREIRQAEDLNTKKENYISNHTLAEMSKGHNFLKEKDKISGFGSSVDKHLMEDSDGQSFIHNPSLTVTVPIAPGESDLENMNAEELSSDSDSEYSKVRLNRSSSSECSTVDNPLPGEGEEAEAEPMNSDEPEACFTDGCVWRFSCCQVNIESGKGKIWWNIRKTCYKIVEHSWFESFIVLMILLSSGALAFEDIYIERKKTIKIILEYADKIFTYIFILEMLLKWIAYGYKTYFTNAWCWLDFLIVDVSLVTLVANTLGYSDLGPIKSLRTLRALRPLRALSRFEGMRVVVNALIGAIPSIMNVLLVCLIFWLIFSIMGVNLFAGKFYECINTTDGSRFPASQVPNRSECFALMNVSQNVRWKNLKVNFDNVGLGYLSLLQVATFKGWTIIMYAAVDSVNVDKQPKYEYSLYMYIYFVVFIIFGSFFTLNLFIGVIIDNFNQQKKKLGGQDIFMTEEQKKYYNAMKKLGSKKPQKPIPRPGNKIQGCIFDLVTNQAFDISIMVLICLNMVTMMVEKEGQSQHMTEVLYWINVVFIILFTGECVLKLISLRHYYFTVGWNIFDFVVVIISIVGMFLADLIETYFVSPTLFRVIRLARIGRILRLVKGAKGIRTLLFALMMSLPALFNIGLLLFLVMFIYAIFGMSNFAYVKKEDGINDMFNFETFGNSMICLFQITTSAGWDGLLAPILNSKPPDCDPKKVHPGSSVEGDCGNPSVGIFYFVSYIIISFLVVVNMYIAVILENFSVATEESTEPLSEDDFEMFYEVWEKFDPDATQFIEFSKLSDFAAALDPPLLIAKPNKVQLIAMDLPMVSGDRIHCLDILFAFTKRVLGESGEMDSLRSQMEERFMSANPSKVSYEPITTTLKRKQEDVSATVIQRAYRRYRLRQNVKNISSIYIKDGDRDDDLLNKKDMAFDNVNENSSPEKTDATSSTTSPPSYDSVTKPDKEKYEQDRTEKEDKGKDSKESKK
- Sequence (Q07699 19-218 partner): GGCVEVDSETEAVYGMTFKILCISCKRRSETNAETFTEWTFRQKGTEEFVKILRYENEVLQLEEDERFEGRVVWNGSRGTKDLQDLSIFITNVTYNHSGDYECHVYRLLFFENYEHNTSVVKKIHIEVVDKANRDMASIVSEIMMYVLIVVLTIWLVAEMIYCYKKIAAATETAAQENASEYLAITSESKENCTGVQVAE
- Experiment Description: Human Nav1.7 inhibitory activity evaluation (automated patch clamp QPatch16X, HEK293A cells stably expressing human Nav1.7 and human Navβ1)
- Format: cell-based
- Measurement Conditions: human Nav1.7, automated patch clamp
Measurement Kind: IC50

// known answers, use as guide
# Compound, IC50
records = [
    ("O=C(N[C@H]1COc2ccc(COCC(F)(F)F)cc2C1)c1cc2n(n1)CC(CCOCC(F)F)O2 (single isomer, unassigned) [224 (isomer A)]", "< 1000 nM"),
    ("N#Cc1ccc(-c2ccc3c(c2)C[C@@H](NC(=O)c2cc4n(n2)CCC(C(F)(F)F)O4)CO3)cn1 (some centres unmarked)", "< 1000 nM"),
    ("O=C(N[C@H]1COc2ccc(C(F)(F)F)cc2C1O)c1cc2n(n1)CCC(C(F)F)O2 (single isomer, unassigned) [534 (isomer A)]", "< 10000 nM"),
    ("O=C(N[C@H]1COc2ccc(CC(F)F)cc2C1)c1cc2n(n1)CCC(C1CCCO1)O2 (some centres unmarked)", "< 10000 nM"),
    ("O=C(N[C@H]1COc2ccc(C(F)(F)F)cc2C1F)c1cc2n(n1)CCC(COCCOCC(F)(F)F)O2 (some centres unmarked)", "< 1000 nM"),
]

GET IC50 where system = human Nav1.7 (Homo sapiens (Human), UniProt Q15858) and item = N#Cc1ccc2c(c1)C(F)[C@@H](NC(=O)c1cc3n(n1)CCC(C(F)(F)F)O3)CO2 (some centres unmarked)
< 10000 nM

Under human Nav1.7 (Homo sapiens (Human), UniProt Q15858), report IC50 for O=C(N[C@H]1COc2ccc(COCC(F)(F)F)cc2C1)c1cc2n(n1)CCC1(CC1)CO2
< 1000 nM

Write down the reported IC50 (system: human Nav1.7 (Homo sapiens (Human), UniProt Q15858)) of O=C(N[C@H]1COc2ccc(-c3cnccn3)cc2C1)c1cc2n(n1)CCC(COCC1CC1)O2 (some centres unmarked)
< 1000 nM

Enter measured IC50, system human Nav1.7 (Homo sapiens (Human), UniProt Q15858), for the compound shown: O=C(N[C@H]1COc2ccc(CC(F)F)cc2C1)c1cc2n(n1)CCC(COCC1(F)CC1)O2 (some centres unmarked)
< 1000 nM

Determine reported IC50 for Cc1ccc2c(c1)C[C@@H](NC(=O)c1cc3n(n1)CC(CCNCC(F)(F)F)O3)CO2 (single isomer, unassigned) [228 (isomer B)] ; test system: human Nav1.7 (Homo sapiens (Human), UniProt Q15858).
< 10000 nM

----------
Recorded pIC50 values for a group of compounds are listed next.
- Tested On: human Nav1.7 (Homo sapiens (Human), UniProt Q15858)
- Experiment Description: Human Nav1.7 inhibitory activity evaluation (automated patch clamp QPatch16X, HEK293A cells stably expressing human Nav1.7 and human Navβ1)
- Assay type: cell-based
- Measurement Conditions: HEK293A cells stably expressing human Nav1.7 and human Navβ1, automated patch clamp QPatch16X
pIC50: −log10 of the molar value.

# Compound, pIC50
data = [
    ("O=C(N[C@H]1COc2ccc(COCC(F)(F)F)cc2C1)c1cc2n(n1)CCC(COCC(F)(F)F)O2 (mixture of isomers) [Example 128]", "> 6.00"),
    ("Cc1ccccc1C1CCn2nc(C(=O)N[C@H]3COc4ccccc4C3)cc2C1 (some centres unmarked)", "> 5.00"),
    ("O=C(N[C@H]1COc2ccc(C(F)(F)F)cc2C1)c1nc2n(c1-c1ccn[nH]1)CCCC2", "> 6.00"),
    ("COc1cccc(OC2CCN(C(=O)c3cn4c(n3)CCC(C3CCCC3)C4)C2)n1 (centres unmarked)", "> 5.00"),
    ("CCCOCC1CCn2nc(C(=O)N[C@H]3COc4ccc(C#N)cc4C3)cc2O1 (some centres unmarked) [Example 100]", "> 5.00"),
]

# return recorded pIC50 for input N#Cc1ccc2c(c1)C[C@@H](NC(=O)c1cc3n(n1)CCC(CC1CC1)O3)CO2 (single isomer, unassigned) [97 (isomer A)]
> 6.00

Given the compound O=C(N[C@H]1COc2ccc(Cl)cc2C1)c1cc2n(n1)CCC(COCC1CC1)O2 (some centres unmarked) , write its reported pIC50.
> 6.00

Give recorded pIC50. CCOCC1CCn2nc(C(=O)N[C@H]3COc4ccc(-c5ccccn5)cc4C3)cc2O1 (single isomer, unassigned) [124 (isomer B)]
> 5.00
